- Tested on: UCD52 (cells of a triple-negative basal-like breast cancer xenograft);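 also: cells dissociated from PDX tumors propagated in female NSG mouse mammary fat pads, vehicle control 0.1% DMSO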
- testDescription: cell viability (% of vehicle); higher = less cytotoxic
- testParameters: 1 µM; 72 h
outcomeMeasure: cell viability
Form rule: numeric answer, no unit written next to it.

COc1ccc(C[C@H](N)C(=O)N[C@@H]2[C@H](O)[C@H](n3cnc4c(N(C)C)ncnc43)O[C@@H]2CO)cc1.Cl.Cl [Puromycin dihydrochloride]: 22.3
CCOC(=O)c1c(CSc2ccccc2)n(C)c2cc(Br)c(O)c(CN(C)C)c12.Cl [Arbidol HCl]: 78.9
CC[C@@]1(O)C(=O)OCc2c1cc1n(c2=O)Cc2cc3c(CN(C)C)c(O)ccc3nc2-1: 101

Qu. Name the reported cell viability value associated with the molecule CC(C)CC(NC(=O)C(CCc1ccccc1)NC(=O)CN1CCOCC1)C(=O)NC(Cc1ccccc1)C(=O)NC(CC(C)C)C(=O)C1(C)CO1 (centres undefined)
Ans. 16.6

Qu. Next entry: "COc1cc2c(Oc3ccc(NC(=O)C4(C(=O)Nc5ccc(F)cc5)CC4)cc3F)ccnc2cc1OCCCN1CCOCC1"
Ans. 48.2

Qu. Please give the result for Cl.Cl.Fc1ccc(C(c2ccc(F)cc2)N2CCN(CC=Cc3ccccc3)CC2)cc1 [Flunarizine 2HCl] too.
Ans. 94.1

Qu. Could you do the same for "CC(O)C(=O)O.CC(O)C(=O)O.CN1CCN(c2ccc3c(c2)NC(=C2C(=O)N=c4cccc(F)c4=C2N)N3)CC1" , please?
Ans. 89.6

Qu. Now consider "COC(=O)c1ccc2c(c1)NC(=O)C2=C(Nc1ccc(N(C)C(=O)CN2CCN(C)CC2)cc1)c1ccccc1" and answer again.
Ans. 46

###

- System: HCI03 (cells of an ER-positive luminal breast cancer xenograft)
- testDescription: cell viability (% of vehicle); higher = less cytotoxic
- testParameters: 10 µM; 72 h
Mark 1 (yes) for cell viability under 100, 0 (no) if at or over.

Please review the entries below; each comes with its answer.
CCOC(=O)[C@H](CCc1ccccc1)N[C@@H](C)C(=O)N1[C@H](C(=O)O)C[C@H]2CCCC[C@@H]21: 0 (no)
Cn1cnc2c(F)c(Nc3ccc(Br)cc3Cl)c(C(=O)NOCCO)cc21 [AZD6244 (Selumetinib)]: 1 (yes)
NC(N)=NS(=O)(=O)c1ccc(N)cc1: 0 (no)

Qu. Regarding COc1cc2c(Nc3ccc(Br)cc3F)ncnc2cc1OCC1CCN(C)CC1 [Vandetanib (ZD6474)] , kindly confirm whether its cell viability is beneath 100.
Ans. 1 (yes)

Qu. And what about the molecule OCC1OC(c2ccc(Cl)c(Cc3ccc(OC4CCOC4)cc3)c2)C(O)C(O)C1O (centres undefined) ?
Ans. 0 (no)

Qu. What about this molecule? CCC(=O)OCC(=O)C1(OC(=O)CC)C(C)CC2C3CCC4=CC(=O)C=CC4(C)C3(Cl)C(O)CC21C (centres undefined) [Beclomethasone dipropionate]
Ans. 0 (no)

Qu. Now this one: CCN1CCCC1CNC(=O)c1cc(S(N)(=O)=O)ccc1OC (centres undefined) [Levosulpiride]
Ans. 0 (no)

Qu. Then what about the molecule O=C(NN=Cc1ccc([N+](=O)[O-])o1)c1ccc(O)cc1 [Nifuroxazide] ?
Ans. 0 (no)

###

Entries annotated with measured cell viability
- Test system: HCI16 (cells of a triple-negative basal-like breast cancer xenograft)
- testDescription: cell viability (% of vehicle); higher = less cytotoxic
- testParameters: 10 µM; 72 h

CCN(CC)CCNC(=O)c1ccc(N)cc1.Cl [Procainamide HCl]: 116

Qu. For the record CC1C=CC=CC=CC=CC=CC=CC=CC(OC2OC(C)C(O)C(N)C2O)CC2OC(O)(CC(O)CC(O)C(O)CCC(O)CC(O)CC(=O)OC(C)C(C)C1O)CC(O)C2C(=O)O (stereo not drawn) , what value of cell viability is listed for HCI16?
Ans. 107

Qu. Now try CCC(CO)NCCNC(CC)CO.Cl.Cl (stereo not drawn) [Ethambutol HCl] .
Ans. 102

Qu. Here is the next compound: "O=c1[nH]cc(F)c(=O)[nH]1"
Ans. 151

Qu. Let us now turn to Cl.Nc1ccn(C2OC(CO)C(O)C2O)c(=O)n1 (stereo not drawn) [Cytarabine hydrochloride]
Ans. 73.9

Qu. What about this compound? "CCCCCCCCCCCC1=C(O)C(=O)C=C(O)C1=O"
Ans. 92.7

Qu. And the next one, COc1ccc(CN(CCN(C)C)c2ccccn2)cc1.O=C(O)/C=C\C(=O)O [Mepyramine maleate] ?
Ans. 107

Qu. Follow-up item: CS(=O)(=O)c1ccc(C(O)C(CF)NC(=O)C(Cl)Cl)cc1 (stereo not drawn)
Ans. 116
